molecular target: Cyclin E1 (Homo sapiens, UniProt P24864+Q96SW2); test: Cyclin E1 Cellular Degradation Assay (MSD); assay type: cell-based; parameters: endogenous in cells; host or cells: OVCAR3; conditions: Cyclin E1 cellular degradation
Sequence (P24864 whole entry): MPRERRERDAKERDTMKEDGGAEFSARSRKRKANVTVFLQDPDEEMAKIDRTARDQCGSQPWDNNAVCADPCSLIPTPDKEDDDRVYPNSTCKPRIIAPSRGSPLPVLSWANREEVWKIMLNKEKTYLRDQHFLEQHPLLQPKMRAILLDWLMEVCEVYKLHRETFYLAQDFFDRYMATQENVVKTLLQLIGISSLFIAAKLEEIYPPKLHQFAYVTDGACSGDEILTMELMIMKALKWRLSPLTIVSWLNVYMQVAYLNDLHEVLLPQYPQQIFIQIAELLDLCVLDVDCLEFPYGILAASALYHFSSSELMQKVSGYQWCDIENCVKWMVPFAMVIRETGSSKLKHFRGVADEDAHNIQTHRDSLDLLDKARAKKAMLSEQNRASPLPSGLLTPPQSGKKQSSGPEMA
Sequence (Q96SW2 whole entry): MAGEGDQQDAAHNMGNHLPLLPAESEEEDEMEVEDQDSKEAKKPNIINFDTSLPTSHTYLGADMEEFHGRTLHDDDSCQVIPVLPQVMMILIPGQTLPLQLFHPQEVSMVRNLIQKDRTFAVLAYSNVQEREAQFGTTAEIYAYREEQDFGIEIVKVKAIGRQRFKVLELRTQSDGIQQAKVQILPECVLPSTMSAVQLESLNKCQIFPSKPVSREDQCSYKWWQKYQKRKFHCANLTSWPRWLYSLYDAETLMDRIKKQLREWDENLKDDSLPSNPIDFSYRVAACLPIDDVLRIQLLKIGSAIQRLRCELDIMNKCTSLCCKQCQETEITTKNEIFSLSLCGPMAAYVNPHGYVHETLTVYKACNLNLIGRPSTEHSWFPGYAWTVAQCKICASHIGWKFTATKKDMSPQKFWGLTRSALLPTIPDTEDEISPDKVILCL
Sequence (Q16531 whole entry partner): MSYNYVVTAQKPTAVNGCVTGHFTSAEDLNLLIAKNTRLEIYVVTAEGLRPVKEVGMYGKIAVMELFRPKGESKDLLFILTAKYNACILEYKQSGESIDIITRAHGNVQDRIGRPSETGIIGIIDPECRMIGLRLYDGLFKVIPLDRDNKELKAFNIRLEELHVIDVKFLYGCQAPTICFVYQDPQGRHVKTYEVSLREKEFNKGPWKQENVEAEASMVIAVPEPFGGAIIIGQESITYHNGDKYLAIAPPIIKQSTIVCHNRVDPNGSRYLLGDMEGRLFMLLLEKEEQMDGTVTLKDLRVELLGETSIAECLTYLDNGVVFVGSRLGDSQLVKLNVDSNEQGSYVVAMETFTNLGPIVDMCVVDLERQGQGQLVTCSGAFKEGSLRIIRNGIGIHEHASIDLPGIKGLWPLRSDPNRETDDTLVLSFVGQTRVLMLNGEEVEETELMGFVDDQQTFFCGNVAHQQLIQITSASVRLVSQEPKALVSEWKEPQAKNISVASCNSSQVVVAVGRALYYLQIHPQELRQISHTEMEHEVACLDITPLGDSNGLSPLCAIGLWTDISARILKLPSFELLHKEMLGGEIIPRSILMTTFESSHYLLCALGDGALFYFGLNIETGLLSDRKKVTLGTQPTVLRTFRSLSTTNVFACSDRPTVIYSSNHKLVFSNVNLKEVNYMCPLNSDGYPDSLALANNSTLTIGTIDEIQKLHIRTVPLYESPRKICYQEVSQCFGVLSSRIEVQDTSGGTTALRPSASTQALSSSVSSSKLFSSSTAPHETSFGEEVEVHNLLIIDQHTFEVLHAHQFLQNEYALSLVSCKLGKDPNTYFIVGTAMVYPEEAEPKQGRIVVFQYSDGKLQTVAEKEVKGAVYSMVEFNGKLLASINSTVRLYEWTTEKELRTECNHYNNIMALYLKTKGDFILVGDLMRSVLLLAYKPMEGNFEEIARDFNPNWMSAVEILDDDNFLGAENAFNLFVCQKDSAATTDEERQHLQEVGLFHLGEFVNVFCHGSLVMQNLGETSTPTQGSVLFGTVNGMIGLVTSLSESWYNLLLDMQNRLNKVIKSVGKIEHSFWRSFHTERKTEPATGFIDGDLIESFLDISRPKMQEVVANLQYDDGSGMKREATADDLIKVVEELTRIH
The molecules listed here are annotated with their DC50.
READOUT: DC50 (nM)

1) COc1c(COC(=O)Nc2ccc(Oc3cc(F)c(F)cc3C)cc2F)ccc2c1C(=O)N(C1CCC(=O)NC1=O)C2 (stereo not shown) [Example 94]: 198
2) CC(C)(O)COc1c(COC(=O)Nc2ccc(Oc3cc(F)cc(F)c3)cc2F)ccc2c1C(=O)N(C1CCC(=O)NC1=O)C2 (stereo not shown) [Example 164]: 75
3) COc1c(COC(=O)Nc2ccc(Oc3ccc(F)c(C)c3)cc2F)ccc2c1C(=O)N(C1CCC(=O)NC1=O)C2 (stereo not shown) [Example 99]: 118
4) COc1c(COC(=O)Nc2ccc(Oc3cc(F)c(F)c(F)c3)cc2F)ccc2c1C(=O)N(C1CCC(=O)NC1=O)C2 (stereo not shown) [Example 15]: 35
